ROCK2 (human) (UniProt O75116): recorded pIC50 for assorted molecules
Sequence (O75116 whole entry, looked up): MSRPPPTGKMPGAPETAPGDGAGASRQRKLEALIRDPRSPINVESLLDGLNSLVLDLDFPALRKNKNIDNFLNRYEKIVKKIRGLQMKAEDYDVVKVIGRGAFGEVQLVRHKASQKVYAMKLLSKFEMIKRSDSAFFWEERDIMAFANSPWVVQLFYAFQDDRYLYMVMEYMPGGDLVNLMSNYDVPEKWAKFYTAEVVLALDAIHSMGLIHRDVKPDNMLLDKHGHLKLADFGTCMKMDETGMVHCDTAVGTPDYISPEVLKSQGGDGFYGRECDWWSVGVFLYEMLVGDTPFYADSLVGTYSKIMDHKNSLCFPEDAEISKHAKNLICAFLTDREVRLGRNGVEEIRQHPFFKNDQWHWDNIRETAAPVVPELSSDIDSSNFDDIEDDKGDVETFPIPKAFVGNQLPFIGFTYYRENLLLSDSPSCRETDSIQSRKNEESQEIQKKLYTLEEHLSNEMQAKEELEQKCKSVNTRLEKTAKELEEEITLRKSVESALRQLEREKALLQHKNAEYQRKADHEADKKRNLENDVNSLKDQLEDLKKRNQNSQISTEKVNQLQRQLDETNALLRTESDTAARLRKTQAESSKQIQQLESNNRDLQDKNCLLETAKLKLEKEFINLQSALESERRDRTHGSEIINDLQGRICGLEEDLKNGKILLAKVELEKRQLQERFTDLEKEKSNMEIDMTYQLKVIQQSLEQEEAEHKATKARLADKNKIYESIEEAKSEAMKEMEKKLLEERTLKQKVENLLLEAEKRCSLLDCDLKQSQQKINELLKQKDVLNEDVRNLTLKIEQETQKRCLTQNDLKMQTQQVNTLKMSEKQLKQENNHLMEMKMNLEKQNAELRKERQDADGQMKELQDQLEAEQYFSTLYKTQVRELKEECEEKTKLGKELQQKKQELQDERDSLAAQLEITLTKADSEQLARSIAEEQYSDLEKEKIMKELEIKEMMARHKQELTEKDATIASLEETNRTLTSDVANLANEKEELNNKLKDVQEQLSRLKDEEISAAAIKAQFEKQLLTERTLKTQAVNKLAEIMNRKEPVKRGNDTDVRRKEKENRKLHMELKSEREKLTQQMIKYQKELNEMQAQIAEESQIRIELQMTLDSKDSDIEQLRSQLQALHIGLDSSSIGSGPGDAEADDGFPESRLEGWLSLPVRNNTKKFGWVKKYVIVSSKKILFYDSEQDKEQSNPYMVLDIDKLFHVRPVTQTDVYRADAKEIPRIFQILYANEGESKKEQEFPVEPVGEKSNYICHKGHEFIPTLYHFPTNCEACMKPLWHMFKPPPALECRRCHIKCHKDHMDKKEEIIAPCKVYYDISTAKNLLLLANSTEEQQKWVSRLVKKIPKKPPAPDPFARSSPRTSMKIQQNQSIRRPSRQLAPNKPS
pIC50: −log10 of the molar value.

Consider the worked cases shown below.
1) CC(C)CC(N)[C@]1(CC2CC2)CC[C@H](Oc2cc3cc[nH]c(=O)c3cc2Cl)CC1 (stereo partly drawn) :: ≥ 8.00
2) CC[C@]1(C(N)CF)CC[C@H](Oc2cc3cc[nH]c(=O)c3cc2Cl)CC1 (stereo partly drawn) :: 7.00 to 8.00

Pending molecule:
Short answer on ROCK2 (human) (UniProt O75116) for CCC(N)[C@]1(CC)CC[C@H](Oc2cc3cc[nH]c(=O)c3cc2C)CC1 (stereo partly drawn) , pIC50: 6.00 to 7.00

###

Parameter: IC50. Scope: all listed entries.
- Target desc: ROCK2 (human) (UniProt O75116)
- Method: Inhibition of ROCK2 Kinase Activity

Consider the worked cases shown below.
1) CC(C)C(N)C1(CC2CC2)CCC(Oc2cc3cc[nH]c(=O)c3cc2Cl)CC1 (stereo not given) :: ≤ 10 nM
2) CC[C@]1(C(C)N)CC[C@@H](Oc2ccc3cnccc3c2Cl)CC1 (stereo not given in full) :: 100 to 1000 nM
3) CC(N)[C@]1(C2CC2)CC[C@H](Oc2cc3cc[nH]c(=O)c3cc2Cl)CC1 (stereo not given in full) :: 10 to 100 nM

IC50 reported for this molecule CCC(NCC1CC1)[C@]1(CC)CC[C@H](Oc2cc3cc[nH]c(=O)c3cc2Cl)CC1 (stereo not given in full) : 100 to 1000 nM

IC50 reported for this molecule CC[C@H](N)[C@]1(C2CCOCC2)CC[C@H](Oc2cc3cc[nH]c(=O)c3cc2Cl)CC1 : 10 to 100 nM

IC50 reported for this molecule CCC(N)[C@]1(C2CCOCC2)CC[C@@H](Oc2cc3cc[nH]c(=O)c3cc2Cl)CC1 (stereo not given in full) : 100 to 1000 nM

IC50 reported for this molecule CC[C@@H](N)[C@]1(C2CCOCC2)CC[C@H](Oc2cc3cc[nH]c(=O)c3cc2Cl)CC1 : ≤ 10 nM

IC50 reported for this molecule CCC[C@]1(C(C)N)CC[C@@H](Oc2cc3cc[nH]c(=O)c3cc2Cl)CC1 (stereo not given in full) : ≤ 10 nM

IC50 reported for this molecule CCCCNC(CC)[C@]1(CC)CC[C@H](Oc2cc3cc[nH]c(=O)c3cc2Cl)CC1 (stereo not given in full) : 100 to 1000 nM

IC50 reported for this molecule NC(C1CC1)[C@]1(C2CC2)CC[C@H](Oc2cc3cc[nH]c(=O)c3cc2Cl)CC1 (stereo not given in full) : ≤ 10 nM

IC50 reported for this molecule CC[C@]1(C(N)CF)CC[C@@H](Oc2cc3cc[nH]c(=O)c3cc2Cl)CC1 (stereo not given in full) : ≤ 10 nM

###

ROCK2 (human) (UniProt O75116): recorded pIC50 for assorted compounds
pIC50: −log10 of the molar value.

Consider the worked cases shown below.
1) CCC(N)[C@]1(CC)CC[C@H](Oc2cc3cc[nH]c(=O)c3cc2Cl)CC1 (some centres undefined) :: ≥ 8.00
2) NC(C1CC1)[C@]1(CC2CCOCC2)CC[C@H](Oc2cc3cc[nH]c(=O)c3cc2Cl)CC1 (some centres undefined) :: ≥ 8.00
3) CCC(N)[C@]1(C2CC2)CC[C@H](Oc2cc3cc[nH]c(=O)c3cc2Cl)CC1 (some centres undefined) :: ≥ 8.00
4) CCC(N)[C@]1(C(C)C)CC[C@H](Oc2cc3c(F)c[nH]c(=O)c3cc2Cl)CC1 (some centres undefined) :: 7.00 to 8.00
5) NC(C(F)(F)F)C1(CC2CC2)CCC(Oc2cc3cc[nH]c(=O)c3cc2Cl)CC1 (centres undefined) :: 6.00 to 7.00

pIC50 reported for this compound CCC(N)[C@]1(OC)CC[C@@H](Oc2cc3cc[nH]c(=O)c3cc2Cl)CC1 (some centres undefined) : 7.00 to 8.00

pIC50 reported for this compound CCC(N)C1(Cc2ccccc2)CCC(Oc2cc3cc[nH]c(=O)c3cc2Cl)CC1 (centres undefined) : 7.00 to 8.00

pIC50 reported for this compound CC[C@]1(C(C)N)CC[C@@H](Oc2c(F)cc3c(=O)[nH]ccc3c2C)CC1 (some centres undefined) : 6.00 to 7.00

pIC50 reported for this compound CC[C@]1(C(C)N)CC[C@@H](Oc2cc3cc[nH]c(=O)c3cc2C)CC1 (some centres undefined) : 7.00 to 8.00
